# Tested on: Pfeiffer cell line (diffuse large B cell lymphoma)
# TEST PROTOCOL: Pfeiffer cell proliferation assay
# Type: cell-based
# COND: Homo sapiens, [3H]-thymidine incorporation after 3-4 days plus 12 hours
# Procedure: Pfeiffer Cell Proliferation Assay Pfeiffer cell line (diffuse large B cell lymphoma) was purchased from ATCC (Manassas, Va.) and maintained in the culture medium recommended (RPMI and 10% FBS). To measure the anti-proliferation activity of the compounds, the Pfeiffer cells were plated with the culture medium (2×10^3 cells/well/per 200 μl) into 96-well ultra-low binding plates (Corning, Corning, N.Y.), in the presence or absence of a concentration range of test compounds. […]
pIC50: −log10 of the molar value. Counter-ions that a name gives are not always drawn.
Below is a list of entries, each paired with its recorded pIC50 value.

{"columns": ["MOLECULE", "pIC50"],
 "data": [
  ["CC(Nc1ncnc2[nH]cnc12)c1cc(Cl)c2cncn2c1N1CCNCC1 (stereo not drawn) [Example 9, dihydrochloride]", "≥ 7.00"],
  ["CC(Nc1ncnc2[nH]cnc12)c1cc(Cl)c2cncn2c1-c1cccc(F)c1 (racemic) [Example 1]", "≥ 7.00"]
]}

[ask] Specify reported pIC50 for the molecule shown: CCC(Nc1ncnc2[nH]cnc12)c1cc(Cl)c2cncn2c1-c1cccc(F)c1 (stereo not drawn)
[reply] 6.30 to 7.00

[ask] Identify measured pIC50 corresponding to CC(=O)N1CCN(c2c(C(C)Nc3ncnc4[nH]cnc34)cc(C)c3cncn23)CC1 (stereo not drawn) [Example 32, bis(trifluoroacetate)]
[reply] < 5.52

Cited source for all entries: patent US9193721B2
